Some compounds, each annotated with its measured growth.
# Tested on: UO-31 renal
# protocol_text: NCI-60 one-dose screen, 48 h (100 = growth as untreated, 0 = no growth, -100 = all killed)
# measurement_conditions: 10 µM unless noted
The panel holds about 83,000 compounds, 20% with a hit somewhere; the sample as a whole holds those more often.
Reply numerically in %, unit not repeated.

- compound: "Nc1cccc(-c2nc3sccn3c2-c2ccnc(NCCNS(=O)(=O)c3ccc(C(F)(F)F)cc3)n2)c1"
  measurement_target: "UO-31 renal"
  growth (%): 15.8
- compound: "COc1ccc(-c2nc(N3CCCC3=O)sc2Br)cc1OC"
  measurement_target: "UO-31 renal"
  growth (%): 93.6
- compound: "Brc1ccc(-c2[nH]ncc2-c2c[nH]c3ccccc23)cc1"
  measurement_target: "UO-31 renal"
  growth (%): 57.4
- compound: "COc1cccc(/C=C/C(=O)Nc2cc(OC)c3c(c2)OCO3)c1"
  measurement_target: "UO-31 renal"
  growth (%): 101
- compound: "c1ccc(Nc2nc(Nc3ccccc3)nc(Nc3ccccc3)n2)cc1"
  measurement_target: "UO-31 renal"
  growth (%): 55.5

For this compound ( C=C[C@@H]1C[C@@H]2Cc3cc(Cl)ccc3N1O2 ), measured growth is 101

For this compound ( Cn1cc(-c2cnc3ccc(NC(=O)Nc4ccc(F)c(Br)c4)cc3n2)cn1 ), measured growth is 16.9

For this compound ( C=C1C(=O)O[C@H]2[C@H]1CC/C(Cn1cc(CNC(=O)c3cc4ccccc4[nH]3)nn1)=C\CC[C@@]1(C)O[C@@H]21 ), measured growth is 73.4

For this compound ( Cc1c(C(=N)C(C#N)C#N)c(=N)oc2c1ccc1ccccc12 ), measured growth is 85.5

For this compound ( CCOC(=O)C1C(=O)C=C(c2ccc(OC)cc2)CC1c1sc(N(C)Cc2ccccc2)nc1Cl (stereo not given) ), measured growth is 54.2

For this compound ( COc1ccc(/C=N\NC(=O)CN2CCN(c3cc4c(cc3F)c(=O)c(C(=O)N/N=C/c3ccc(OC)c(OC)c3)cn4C3CC3)CC2)cc1OC ), measured growth is 85

For this compound ( O=C1CS/C(=N\Nc2cc(=O)[nH]c3ccccc23)N1c1ccccc1 ), measured growth is 69.7

For this compound ( COc1cc(-c2nn(-c3cccc(NC(=O)Nc4cc(C(F)(F)F)cc(C(F)(F)F)c4)c3)cc2-c2ccncc2)ccc1Cl ), measured growth is -29.2

For this compound ( COC(=O)c1cccc2c1N(C)c1c(cccc1C(=O)OC)CC2 ), measured growth is 101

For this compound ( COc1c2occc2c(OC)c2c(=O)c(-c3cc(-c4ccc(F)cc4)c(C#N)c(N)n3)c(C)oc12 ), measured growth is 25.3

For this compound ( COc1ccc(-c2c(-c3cc(OC)c4c(c3)OCO4)noc2N)cc1 ), measured growth is 36.1

For this compound ( C=C1C(=O)O[C@H]2[C@H]1CC/C(Cn1cc(-c3cccc(Cl)c3)nn1)=C\CC[C@@]1(C)O[C@@H]21 ), measured growth is -95.4

For this compound ( CCOC(=O)c1cn2c3c(cccc3c1=O)C(=O)/C(=C/c1cccc(Cl)c1Cl)C2 ), measured growth is 61.7

For this compound ( Cc1cc(C2(c3cc(C)c(O)cc3C)OS(=O)(=O)c3ccccc32)c(C)cc1O ), measured growth is 69.4

For this compound ( CC(C)c1ccc2occ(C=C3C(=O)NC(=O)NC3=O)c(=O)c2c1 ), measured growth is 86.6

Source listed as PubChem BioAssay (NCI).
